Data provenance: patent EP4512427A1

Tested on: MDA-MB-453
TEST NAME: In vitro cytotoxicity assay (MTT)
Assay type: cell-based, human
EXPERIMENTAL CONDITIONS: Homo sapiens, MDA-MB-453, 144 h, 6 days incubation
Method: In vitro cytotoxicity of compounds of the disclosure was assessed on several cancerous human cell lines. […] Absorbance values were measured on a microplate reader using a wavelength of 570 nm (with a reference wavelength of 690 nm). The IC50 concentration values compared to untreated control cells were determined using inhibition dose response curve fitting (GraphPad Prism 9). […]
MEASURED QUANTITY: pIC50
// scale note: pIC50 = -log10(conc_M); give the bare number

Sample answers from the record:
1) NCCCCNc1nc(NCc2ccc(-c3ccccn3)cc2)n2ncc(Br)c2n1: 7.57
2) NCCCNc1nc(NCc2ccc(-c3ccccn3)cc2)n2ncc(Br)c2n1: 8.11

// switching to the query compound
For the compound shown here, "O[C@H]1CN[C@H](CNc2nc(NCc3ccc(-c4ccccn4)cc3)n3ncc(Br)c3n2)C1" , give the reported pIC50.
8.09

###

List of IC50 values.
Tested on: SKBR-3
TEST NAME: In vitro cytotoxicity assay (MTT)
Type: cell-based, human
EXPERIMENTAL CONDITIONS: Homo sapiens, SK-BR-3, 144 h, 6 days incubation
Method: In vitro cytotoxicity of compounds of the disclosure was assessed on several cancerous human cell lines. […] Absorbance values were measured on a microplate reader using a wavelength of 570 nm (with a reference wavelength of 690 nm). The IC50 concentration values compared to untreated control cells were determined using inhibition dose response curve fitting (GraphPad Prism 9). […]
Kindly answer with a numeric value in nM, unit omitted.

Sample answers from the record:
1. NC1CCN(c2nc(NCc3ccc(-c4ccccn4)cc3)n3ncc(Br)c3n2)CC1: 3.73
2. N[C@H]1CC[C@H](CNc2nc(NCc3ccc(-c4ccccn4)cc3)n3ncc(Br)c3n2)CC1: 0.83

For the compound shown here, "N[C@H]1CCCC[C@H]1Nc1nc(NCc2ccc(-c3ccccn3)cc2)n2ncc(Br)c2n1" , give the reported IC50.
0.24

Next compound: "Brc1cnn2c(NCc3ccc(-c4ccccn4)cc3)nc(NC3CCNCC3)nc12"
1.68

Next compound: "N[C@H]1CCN(c2nc(NCc3ccc(-c4ccccn4)cc3)n3ncc(Br)c3n2)C1"
0.14

Next compound: "NCCNc1nc(NCc2ccc(-c3ccccn3)cc2)n2ncc(Br)c2n1"
0.82

Next compound: "CC(C)c1cnn2c(NCc3ccc(-c4ccccn4)cc3)nc(NC3CCNCC3)nc12"
1.94

Next compound: "Nc1ccc(Nc2nc(NCc3ccc(-c4ccccn4)cc3)n3ncc(Br)c3n2)cc1"
25.9

Next compound: "N[C@H]1CC[C@H](Nc2nc(NCc3ccc(-c4ccccn4)cc3)n3ncc(Br)c3n2)C1"
0.67

Next compound: "NC[C@H]1CC[C@H](Nc2nc(NCc3ccc(-c4ccccn4)cc3)n3ncc(Br)c3n2)CC1"
0.17

Next compound: "NCC1CCN(c2nc(NCc3ccc(-c4ccccn4)cc3)n3ncc(Br)c3n2)CC1"
4.33

Next compound: Brc1cnn2c(NCc3ccc(-c4ccccn4)cc3)nc(NC3CCCNC3)nc12 (racemic)
1.23

Next compound: "Brc1cnn2c(NCc3ccc(-c4ccccn4)cc3)nc(N3CCC(N4CCNCC4)CC3)nc12"
2.24

Next compound: "N[C@H]1CC[C@H](Nc2nc(NCc3ccc(-c4ccccn4)cc3)n3ncc(Cl)c3n2)CC1"
0.27

Next compound: "NCCCNc1nc(NCc2ccc(-c3ccccn3)cc2)n2ncc(Br)c2n1"
0.77

Next compound: "N[C@H]1CC[C@@H](Nc2nc(NCc3ccc(-c4ccccn4)cc3)n3ncc(Br)c3n2)CC1"
4.36

Next compound: "O[C@H]1CN[C@H](CNc2nc(NCc3ccc(-c4ccccn4)cc3)n3ncc(Br)c3n2)C1"
39.1

Next compound: "Brc1cnn2c(NCc3ccc(-c4ccccn4)cc3)nc(N3CCNCC3)nc12"
3.61

Next compound: "Brc1cnn2c(NCc3ccc(-c4ccccn4)cc3)nc(NCC3CCNCC3)nc12"
62.6

Next compound: "Brc1cnn2c(NCc3ccc(-c4ccccn4)cc3)nc(NC[C@@H]3CCCN3)nc12"
7.75
